The values you see were collected from ChEMBL document CHEMBL1122708.

System: Neisseria gonorrhoeae
Experiment: Minimum inhibitory concentration of compound against Neisseria gonorrhoeae AS 7720
Assay type: functional
experimental.readout: MIC (µg/mL)
Answers are plain numbers, in µg/mL.

Sample answers from the record:
Cc1ccc2c(c1)C=NN(S(=O)(=O)c1ccc(N)cc1)B2O = 2
CC(C)CS(=O)(=O)N1N=Cc2sc(Br)cc2B1O = 2
Cc1ccc2c(c1)C=NN(S(=O)(=O)N(C)C)B2O = 8
Nc1ccc(S(=O)(=O)N2N=Cc3cc(Br)ccc3B2O)cc1 = 1
Cc1ccc(S(=O)(=O)N2N=Cc3ccccc3B2O)cc1 = 2
O=[N+]([O-])c1ccc(S(=O)(=O)N2N=Cc3cc(Br)ccc3B2O)cc1 = 1
Cc1ccc(S(=O)(=O)N2N=Cc3cc(Cl)ccc3B2O)cc1 = 1
Cc1ccc(S(=O)(=O)N2N=Cc3cc4c(cc3B2O)-c2ccccc2C4)cc1 = 2

List the reported MIC of each compound below.
1. CC(=O)Nc1ccc(S(=O)(=O)N2N=Cc3sc(Br)cc3B2O)c(Cl)c1
2. CC(=O)Nc1ccc(S(=O)(=O)N2N=Cc3cc(Br)ccc3B2O)c(Cl)c1
3. Cc1ccc(S(=O)(=O)N2N=Cc3sc(Br)cc3B2O)cc1
4. Cc1ccc(S(=O)(=O)N2N=Cc3sc(Cl)cc3B2O)cc1

1
1
0.5
1

----------
System: Proteus mirabilis
Experiment: Minimum inhibitory concentration against Proteus mirabilis delta 89
Format: functional
experimental.readout: log10 MIC (log10 of the value in µg/mL)
In plain terms, each number is the log10 of measured MIC in µg/mL.

Below, each entry is followed by its recorded log10 MIC result.
CCCS(=O)(=O)N1N=Cc2cc(CC)sc2B1O = 0.10
O=S(=O)(c1ccccc1Cl)N1N=Cc2sc(Br)cc2B1O = -0.11
Cc1cc2c(s1)C=NN(S(=O)(=O)c1ccccc1C)B2O = 0.19
Cc1ccc(S(=O)(=O)N2N=Cc3scc(Br)c3B2O)cc1 = 1.70
Nc1ccc(S(=O)(=O)N2N=Cc3cc(Br)ccc3B2O)cc1 = -0.11

# get_value(readout='log10 MIC', item= `Cc1ccc(S(=O)(=O)N2N=Cc3cc(Br)sc3B2O)cc1` ) 1.40

----------
Test system: Neisseria gonorrhoeae
Experiment: Minimum inhibitory concentration of compound against Neisseria gonorrhoeae AS 7720
Format: functional
So I've got a bunch of compounds here, and I need their MIC values.
One number for each entry, in µg/mL.

Nc1ccc(S(=O)(=O)N2N=Cc3c(F)cccc3B2O)cc1 = 8
Cc1cc2c(s1)C=NN(S(=O)(=O)c1ccccc1C)B2O = 0.5

# per-item lookup of MIC; items listed below
1. CCCS(=O)(=O)N1N=Cc2sc(C)cc2B1O
2. Cc1cc(C)c(S(=O)(=O)N2N=Cc3sc(Br)cc3B2O)c(C)c1
3. Cc1ccc(S(=O)(=O)N2N=Cc3ccc(Br)cc3B2O)cc1
4. CCCS(=O)(=O)N1N=Cc2cc(Cl)ccc2B1O

1. 1
2. 1
3. 2
4. 2

----------
System: Proteus mirabilis
Assay: Minimum inhibitory concentration against Proteus mirabilis delta 89
Assay type: functional
experimental.readout: MIC (µg/mL)
Give bare numbers, in µg/mL.

The examples below pair each entry with its known result.
Cc1ccc(S(=O)(=O)N2N=Cc3sc(Cl)cc3B2O)cc1 = 1.56
CCCS(=O)(=O)N1N=Cc2cc(Cl)ccc2B1O = 2.5
CCCS(=O)(=O)N1N=Cc2cc(C)ccc2B1O = 1.56
Cc1ccc(S(=O)(=O)N2N=Cc3sc(Br)cc3B2O)cc1 = 1.56

Which MIC value belongs to `CCc1cc2c(s1)C=NN(S(=O)(=O)c1ccccc1Cl)B2O` ? 0.39

----------
Tested on: Neisseria gonorrhoeae
Test: Minimum inhibitory concentration of compound against Neisseria gonorrhoeae AS 7720
Format: functional
experimental.readout: MIC (µg/mL)
Answers are plain numbers, in µg/mL.

Cc1ccccc1S(=O)(=O)N1N=Cc2sc(Br)cc2B1O = 0.5

Would you mind listing MIC for each of the following molecules?
1. O=S(=O)(c1ccccc1)N1N=Cc2sc(Br)cc2B1O
2. Cc1ccc2c(c1)C=NN(S(=O)(=O)c1ccc(N)cc1Cl)B2O
3. Cc1ccc(S(=O)(=O)N2N=Cc3c(C)cccc3B2O)cc1
4. CCS(=O)(=O)N1N=Cc2sc(Br)cc2B1O
5. CCCS(=O)(=O)N1N=Cc2cc(CC)sc2B1O

1
1
2
2
0.5

----------
Tested on: Neisseria gonorrhoeae
Assay: Minimum inhibitory concentration of compound against Neisseria gonorrhoeae AS 7720
Assay type: functional
experimental.readout: MIC (mg/L)
One number for each entry, in mg/L.

// known answers, use as guide
O=S(=O)(c1cc(Cl)c(Cl)cc1Cl)N1N=Cc2oc(Br)cc2B1O = 0.5
O=S(=O)(c1ccccc1Cl)N1N=Cc2sc(Br)cc2B1O = 0.5
Cc1cc2c(s1)C=NN(S(=O)(=O)c1ccccc1Cl)B2O = 0.5

Please give MIC for each item listed below.
1. Cc1ccc(S(=O)(=O)N2N=Cc3cc(C)sc3B2O)c(Cl)c1
2. Cc1ccc(S(=O)(=O)N2N=Cc3cc(F)ccc3B2O)cc1

1: 1; 2: 2

Required: MIC, one value per compound below.
1. O=S(=O)(c1cc(Cl)c(Cl)cc1Cl)N1N=Cc2cc(Br)ccc2B1O
2. Cc1ccc(S(=O)(=O)N2N=Cc3c(F)cccc3B2O)cc1
3. Cc1ccc(S(=O)(=O)N2N=Cc3cc(Br)ccc3B2O)cc1
4. CCCS(=O)(=O)N1N=Cc2cc(C)ccc2B1O

[1, 2, 1, 2]

For every item in the list below, what is its measured MIC?
1. CCCS(=O)(=O)N1N=Cc2sccc2B1O
2. CC(=O)Nc1ccc(S(=O)(=O)N2N=Cc3sc(Br)cc3B2O)cc1

[8, 1]

// input: 2 compounds below; output: MIC for each
1. Cc1ccc(S(=O)(=O)N2N=Cc3oc(Br)cc3B2O)cc1
2. Cc1ccc(S(=O)(=O)N2N=Cc3sc(C)cc3B2O)c(Cl)c1

2
0.5

----------
System: Neisseria gonorrhoeae
Experiment: Minimum inhibitory concentration of compound against Neisseria gonorrhoeae AS 7720
Type: functional
experimental.readout: MIC

Check out these entries, answers already filled in.
Cc1ccc(S(=O)(=O)N2N=Cc3cc(Br)sc3B2O)cc1 = > 8 mg/L
CCCS(=O)(=O)N1N=Cc2c(ccn2C)B1O = > 8 mg/L
CN(C)S(=O)(=O)N1N=Cc2ccccc2B1O = > 8 mg/L
O=S(=O)(c1ccccc1)N1N=Cc2ccc(O)cc2B1O = > 8 mg/L

Value lookup for MIC; key = `Cc1ccc(S(=O)(=O)N2N=Cc3cc4c(cc3B2O)C=NN(S(=O)(=O)c2ccc(C)cc2)B4O)cc1` > 8 mg/L
